Test system: normal primary NK cells, pool 1 (3 donors) (IL-2 2.5 ng/mL)
Assay: percent inhibition of viability; higher = more inhibition
Details: 72 h; 1000 nM
quantity: percent inhibition of viability
Reply with a number, then the unit it belongs to.

# count of solved cases: 2
Param item = CC(C)Oc1ccc(C(=O)N[C@H](CNC(=O)CN(C)C)Cc2ccc(-c3cn4cccc([C@H](C)O)c4n3)cc2)cc1Cl (max concentration tested 10000 nM) ; retrieve measured percent inhibition of viability.
-2.94%

Param item = Cc1sc2c(c1C)C(c1ccc(Cl)cc1)=N[C@@H](CC(=O)Nc1ccc(O)cc1)c1nnc(C)n1-2 [OTX015] (max concentration tested 10000 nM) ; retrieve measured percent inhibition of viability.
59.5%

Consider the additional compound presented here.
Param item = CC1=C(/C=C/C(C)=C/C=C/C(C)=C/C(=O)O)C(C)(C)CCC1 [Tretinoin] (max concentration tested 10000 nM) ; retrieve measured percent inhibition of viability.
-4.32%

====

Tested on: DERL-7 (IL-2 2.5 ng/mL)
Test: percent inhibition of viability; higher = more inhibition
Conditions: 72 h; 100 nM
quantity: percent inhibition of viability (%)
Your answer is read as %, so omit the unit and give the number.

# count of solved cases: 3
Param item = CC(C)C[C@@H](C(=O)N[C@H](C(=O)OC1CCCC1)c1ccccc1)[C@H](O)C(=O)NO [Tosedostat] (max concentration tested 10000 nM) ; retrieve measured percent inhibition of viability.
38.8

Param item = OC[C@H]1O[C@@H](n2cnc3c2N=CNC[C@H]3O)C[C@@H]1O [Pentostatin] (max concentration tested 10000 nM) ; retrieve measured percent inhibition of viability.
-10.5

Param item = CN(C)c1nc(N(C)C)nc(N(C)C)n1 [Altretamine] (max concentration tested 10000 nM) ; retrieve measured percent inhibition of viability.
0.97

Next:
Param item = O=C(O)c1ccc(O)c2ncccc12 [IOX-1] (max concentration tested 100000 nM) ; retrieve measured percent inhibition of viability.
6.07

Param item = COc1cc(Nc2ncc3c(n2)-c2ccc(Cl)cc2C(c2c(F)cccc2OC)=NC3)ccc1C(=O)O [Alisertib] (max concentration tested 10000 nM) ; retrieve measured percent inhibition of viability.
73.9

Param item = O=C(/C=C\n1cnc(-c2cc(C(F)(F)F)cc(C(F)(F)F)c2)n1)NNc1cnccn1 [Selinexor] (max concentration tested 10000 nM) ; retrieve measured percent inhibition of viability.
59.3

====

Test system: normal NK cells expanded with K562-aAPC
Assay: percent inhibition of viability; higher = more inhibition
Details: 72 h; IL-2 2.5 ng/mL; 10 nM
# percent inhibition of viability annotations
Your answer is read as %, so omit the unit and give the number.

# count of solved cases: 10
Param item = COc1cc(Nc2ncc(F)c(Nc3ccc4c(n3)NC(=O)C(C)(C)O4)n2)cc(OC)c1OC [Tamatinib] (max concentration tested 10000 nM) ; retrieve measured percent inhibition of viability.
1.7

Param item = COc1cc(O)c2c(c1)/C=C/C[C@H](O)[C@H](O)C(=O)/C=C\C[C@H](C)OC2=O [(5Z)-7-Oxozeaenol] (max concentration tested 10000 nM) ; retrieve measured percent inhibition of viability.
-3.35

Param item = C[C@@H]1C[C@H]2O[C@@H]2/C=C\C=C\C(=O)Cc2c(Cl)c(O)cc(O)c2C(=O)O1 [Radicicol] (max concentration tested 10000 nM) ; retrieve measured percent inhibition of viability.
1.88

Param item = COc1cc2ncnc(Nc3ccc(F)c(Cl)c3)c2cc1OCCCN1CCOCC1 [Gefitinib] (max concentration tested 10000 nM) ; retrieve measured percent inhibition of viability.
-2.95

Param item = CC1(C)CCC(CN2CCN(c3ccc(C(=O)NS(=O)(=O)c4ccc(NCC5CCOCC5)c([N+](=O)[O-])c4)c(Oc4cnc5[nH]ccc5c4)c3)CC2)=C(c2ccc(Cl)cc2)C1 [Venetoclax] (max concentration tested 1000 nM) ; retrieve measured percent inhibition of viability.
-4.26

Param item = COc1cc2c(cc1O)CC[C@@H]1[C@@H]2CC[C@]2(C)[C@@H](O)CC[C@@H]12 [2-methoxyestradiol] (max concentration tested 10000 nM) ; retrieve measured percent inhibition of viability.
-11.6

Param item = O=C(Nc1ccncc1)C(=O)c1cn(Cc2ccc(Cl)cc2)c2ccccc12 [Indibulin] (max concentration tested 10000 nM) ; retrieve measured percent inhibition of viability.
-0.15

Param item = CCc1nc(-c2cccc(C)c2)c(-c2ccnc(NC(=O)c3ccccc3)c2)s1 [TAK-715] (max concentration tested 10000 nM) ; retrieve measured percent inhibition of viability.
-2.48

Param item = COc1ccc(C[C@H](NC(=O)[C@H](C)NC(=O)CN2CCOCC2)C(=O)N[C@@H](Cc2ccccc2)C(=O)C2(C)CO2)cc1 (stereo in doubt) [ONX-0914] (max concentration tested 10000 nM) ; retrieve measured percent inhibition of viability.
5.84

Param item = CC(C)C[C@@H](C(=O)N[C@H](C(=O)OC1CCCC1)c1ccccc1)[C@H](O)C(=O)NO [Tosedostat] (max concentration tested 10000 nM) ; retrieve measured percent inhibition of viability.
6.85

Consider the additional compound presented here.
Param item = NC(=O)c1ccc(I)c([N+](=O)[O-])c1 [Iniparib] (max concentration tested 10000 nM) ; retrieve measured percent inhibition of viability.
0.05

====

# percent inhibition of viability annotations
System: YT (IL-2 2.5 ng/mL)
Experiment: percent inhibition of viability; higher = more inhibition
Settings: 72 h; 1000 nM

# count of solved cases: 3
Param item = CCc1nc(-c2cccc(C)c2)c(-c2ccnc(NC(=O)c3ccccc3)c2)s1 [TAK-715] (max concentration tested 10000 nM) ; retrieve measured percent inhibition of viability.
5.66%

Param item = COc1cc(O)c2c(c1)/C=C/C[C@H](O)[C@H](O)C(=O)/C=C\C[C@H](C)OC2=O [(5Z)-7-Oxozeaenol] (max concentration tested 10000 nM) ; retrieve measured percent inhibition of viability.
46.2%

Param item = CCCOc1ccn2c(C(C)=O)cc(-c3ccccc3S(C)(=O)=O)c2c1 [GSK2801] (max concentration tested 10000 nM) ; retrieve measured percent inhibition of viability.
1.49%

Next:
Param item = Cn1cc(C2=Nc3cc(NC(=O)C(N)C4CCCCC4)cc4c3C2=CNNC4=O)cn1 (centres undefined) (max concentration tested 10000 nM) ; retrieve measured percent inhibition of viability.
72.6%

====

Test system: NK-92 (IL-2 2.5 ng/mL)
Assay: percent inhibition of viability; higher = more inhibition
Settings: 72 h; 100 nM
# percent inhibition of viability annotations
Your answer is read as %, so omit the unit and give the number.

Param item = CC(C)Oc1ccc(C(=O)N[C@H](CNC(=O)CN(C)C)Cc2ccc(-c3cn4cccc([C@H](C)O)c4n3)cc2)cc1Cl (max concentration tested 10000 nM) ; retrieve measured percent inhibition of viability.
18.2

Param item = CC1(C)CCC(CN2CCN(c3ccc(C(=O)NS(=O)(=O)c4ccc(NCC5CCOCC5)c([N+](=O)[O-])c4)c(Oc4cnc5[nH]ccc5c4)c3)CC2)=C(c2ccc(Cl)cc2)C1 [Venetoclax] (max concentration tested 10000 nM) ; retrieve measured percent inhibition of viability.
18.2

Param item = COc1cc(Nc2ncc3c(n2)-c2ccc(Cl)cc2C(c2c(F)cccc2OC)=NC3)ccc1C(=O)O [Alisertib] (max concentration tested 10000 nM) ; retrieve measured percent inhibition of viability.
53.4

Param item = CNC(=O)c1ccc(N2C(=S)N(c3ccc(C#N)c(C(F)(F)F)c3)C(=O)C2(C)C)cc1F [Enzalutamide] (max concentration tested 10000 nM) ; retrieve measured percent inhibition of viability.
-6.81

Param item = COc1cc2ncnc(Nc3ccc(F)c(Cl)c3)c2cc1OCCCN1CCOCC1 [Gefitinib] (max concentration tested 10000 nM) ; retrieve measured percent inhibition of viability.
-3.03

Param item = CCN(CC)C(=S)SSC(=S)N(CC)CC [Disulfiram] (max concentration tested 100000 nM) ; retrieve measured percent inhibition of viability.
-7.5

Param item = COc1ccc(C[C@H](NC(=O)[C@H](C)NC(=O)CN2CCOCC2)C(=O)N[C@@H](Cc2ccccc2)C(=O)C2(C)CO2)cc1 (stereo in doubt) [ONX-0914] (max concentration tested 10000 nM) ; retrieve measured percent inhibition of viability.
93.1

Param item = C=CC[C@@H]1/C=C(\C)C[C@H](C)C[C@H](OC)[C@H]2O[C@@](O)(C(=O)C(=O)N3CCCC[C@H]3C(=O)O[C@H](/C(C)=C/[C@@H]3CC[C@@H](O)[C@H](OC)C3)[C@H](C)[C@@H](O)CC1=O)[C@H](C)C[C@@H]2OC [Tacrolimus] (max concentration tested 10000 nM) ; retrieve measured percent inhibition of viability.
-13.5

Next:
Param item = O=NN(CCCl)C(=O)NCCCl [Carmustine] (max concentration tested 10000 nM) ; retrieve measured percent inhibition of viability.
5.06

Param item = CNC(=O)c1cc(Oc2ccc(NC(=O)Nc3cc(C(C)(C)C)nn3-c3ccc4ncccc4c3)c(F)c2)ccn1 [Rebastinib] (max concentration tested 1000 nM) ; retrieve measured percent inhibition of viability.
0.06
